Each record here notes measured Fold Improvement over Emax (BCY9173), PC3.
Biological target: CD137 on Jurkat reporter cells (Promega kit CS196005) (UniProt Q07011)
Sequence (Q07011 24-255 limits assumed): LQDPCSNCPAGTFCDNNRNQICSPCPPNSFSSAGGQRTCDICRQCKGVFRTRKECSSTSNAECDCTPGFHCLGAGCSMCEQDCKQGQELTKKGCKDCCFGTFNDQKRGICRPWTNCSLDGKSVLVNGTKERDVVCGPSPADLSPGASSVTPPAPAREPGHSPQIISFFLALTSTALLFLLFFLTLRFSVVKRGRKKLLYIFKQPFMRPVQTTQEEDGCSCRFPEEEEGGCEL
Assay: cell-based or functional assay
Starred links: 1 amine or outer side, 2 acyl side, 3 side chain; linkers in the order of their positions; H or OH if unused. Positions of bridges follow the written chain, without caps; N, C: chain ends. Non-standard residues stand in square brackets, D forms with d. Chains are numbered I, II in the order given. No end group written: not given here. *: point of attachment. TATA = O=C(CC[*:1])N1CN(C(=O)CC[*:2])CN(C(=O)CC[*:3])C1; Hyp = O=C(O)[C@@H]1C[C@@H](O)CN1; hArg = N=C(N)NCCCC[C@H](N)C(=O)O; tBuAla = CC(C)(C)C[C@H](N)C(=O)O; dK(PYA) = not defined here; Nle = CCCC[C@H](N)C(=O)O; Pent4ynoyl = C#CCCC(=O)*
Write the value in fold as a bare number.

binder	number
BCY12723 (linker I:4-I:11-I:18, II:1-II:8-II:15 via TATA; not fully specified (bridges); reading uncertain; also: two CD137 bicycles per complex (EphA2:CD137 1:2)) peptide 1: A[hArg]DC[Hyp]LVNPLCLHP[dD]W[hArg]C peptide 2: Ac-C[tBuAla]EE[dK(PYA)]PYCFADPY[Nle]C	1.8

Here's the next entry for you.
The reported value for BCY14334 (linker I:4-I:11-I:18 via TATA; linker II:1-II:8-II:15 via TATA (inferred); not fully specified (some residues); also: N-(acid-PEG3)-N-bis(PEG3-azide) linker at chain 1 N-terminus, joined to dLys(PYA)4 of two BCY8928 chains (1:2 complex)) peptide 1: A[hArg]DC[Hyp]LVNPLCLKP[dD]W[hArg]C peptide 2: Ac-C[tBuAla]PE[dK](Pent4ynoyl)PYCFADPY[Nle]CA in terms of Fold Improvement over Emax (BCY9173), PC3 is 1.62
